Entries with their measured IC50, system 11β-HSD1 (Homo sapiens (Human)):

Here are 5 molecules together with their reported answers.
| molecule | studySystem | IC50 |
| --- | --- | --- |
| O=C(c1cc2ncc(Cl)cn2n1)N1CCc2ncsc2CC1 [Example 10] | 11β-HSD1 (Homo sapiens (Human)) | > 10 µM |
| COc1ccc(-c2cc(C(F)(F)F)n3nc(C(=O)N4CCc5ncsc5CC4)cc3n2)cc1 [C, reference compound] | 11β-HSD1 (Homo sapiens (Human)) | > 10 µM |
| O=C(c1cc2ncc(Br)cn2n1)N1CCCCCC1 [B, reference compound] | 11β-HSD1 (Homo sapiens (Human)) | > 10 µM |
| O=C(c1cc2ncc(Br)cn2n1)N1CCc2[nH]c(=O)sc2CC1 [Example 11] | 11β-HSD1 (Homo sapiens (Human)) | > 10 µM |
| O=C(c1cc2ncc(Br)cn2n1)N1CCCCC1 [Example 4-21, reference compound] | 11β-HSD1 (Homo sapiens (Human)) | > 10 µM |

Returns the measured IC50 for the input molecule. Input: CC(C)c1nc2c(s1)CCN(C(=O)c1cc3ncc(Br)cn3n1)CC2 [Example 12] > 10 µM

Name the reported IC50 value associated with the molecule COc1ccc2c(n1)CCN(C(=O)c1cc3ncc(Br)cn3n1)CC2 [Example 2] > 10 µM

What measured IC50 goes with COCc1nc2c(s1)CCN(C(=O)c1cc3ncc(Br)cn3n1)CC2 [Example 8] ? > 10 µM

Entry Cc1nc2c(s1)CCN(C(=O)c1cc3ncc(Cl)cn3n1)CC2 [Example 13] has what IC50? > 10 µM

Any idea what IC50 was measured for Cc1cc(C(F)(F)F)n2nc(C(=O)N3CCc4ncsc4CC3)cc2n1 [D, reference compound] ? > 10 µM

Name the recorded IC50 for COc1cccc(-c2cc(C(F)(F)F)n3nc(C(=O)N4CCc5ncsc5CC4)cc3n2)c1 [E, reference compound] . > 10 µM

I have this molecule here, O=C(c1cc2ncc(Br)cn2n1)N1CCOCC1 [Example 4-22, reference compound] , and I need its recorded IC50. > 10 µM
